- target.of.assay: cytochrome P450 BM-3 (Priestia megaterium)
- Sequence (P14779 1-1049): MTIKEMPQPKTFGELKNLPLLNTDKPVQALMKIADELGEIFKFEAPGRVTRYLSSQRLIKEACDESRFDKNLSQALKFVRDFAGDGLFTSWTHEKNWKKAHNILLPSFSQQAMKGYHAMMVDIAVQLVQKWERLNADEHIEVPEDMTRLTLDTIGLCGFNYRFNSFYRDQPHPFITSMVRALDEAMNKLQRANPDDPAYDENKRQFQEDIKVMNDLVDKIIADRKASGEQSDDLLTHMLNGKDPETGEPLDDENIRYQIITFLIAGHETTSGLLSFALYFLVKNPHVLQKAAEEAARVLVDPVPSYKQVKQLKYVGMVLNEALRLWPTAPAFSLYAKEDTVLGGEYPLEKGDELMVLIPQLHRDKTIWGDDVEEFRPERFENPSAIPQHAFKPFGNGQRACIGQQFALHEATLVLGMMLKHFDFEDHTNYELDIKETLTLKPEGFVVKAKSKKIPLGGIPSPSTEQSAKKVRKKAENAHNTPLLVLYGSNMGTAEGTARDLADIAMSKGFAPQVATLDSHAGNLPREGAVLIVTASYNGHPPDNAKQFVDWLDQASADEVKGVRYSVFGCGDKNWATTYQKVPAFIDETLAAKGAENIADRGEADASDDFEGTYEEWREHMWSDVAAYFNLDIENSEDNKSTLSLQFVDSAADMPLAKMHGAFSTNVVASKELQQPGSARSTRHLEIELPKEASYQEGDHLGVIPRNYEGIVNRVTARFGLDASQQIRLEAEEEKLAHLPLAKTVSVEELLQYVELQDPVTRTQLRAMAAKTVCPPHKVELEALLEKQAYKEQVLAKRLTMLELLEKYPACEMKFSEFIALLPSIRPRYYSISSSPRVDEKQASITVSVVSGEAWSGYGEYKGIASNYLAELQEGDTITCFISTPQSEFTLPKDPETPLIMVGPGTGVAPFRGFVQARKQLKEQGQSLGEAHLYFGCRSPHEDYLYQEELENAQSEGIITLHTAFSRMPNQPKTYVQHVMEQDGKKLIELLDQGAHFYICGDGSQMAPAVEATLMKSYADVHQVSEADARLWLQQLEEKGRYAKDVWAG
measurement.name: Kd (nM)
Write down the numeric answer in nM and omit the unit.

Kd reading for CCCCCCCCCCCCCCCC(=O)NCC(=O)O : 370

Measured values drawn from paper PMC5945292 for this set.
